All figures here come from patent US20110071289A1.

- Tested on: cortisone reducing activity of cultured human adipocytes
- EXPERIMENT_DESCRIPTION: Inhibitory activity assay for cortisone reducing activity of cultured human adipocytes
- Format: cell-based
- CONDITION_SET: Adipocyte, 100 nM [1,2-3H] cortisone, 37° C. for 3 hours
ENDPOINT_NAME: IC50 (nM)

MOLECULE: CN(CC1CCN(c2ccc(C#N)cn2)CC1)c1c(Cl)c(C(=O)N[C@H]2C3CC4CC2C[C@](O)(C4)C3)nn1C [Example 166]
IC50 / nM: 6.4
--
MOLECULE: CC(C)N(C)c1cc(C(=O)N[C@H]2C3CC4CC2C[C@](C(N)=O)(C4)C3)nn1C [Example 8]
IC50 / nM: 8.7

###

In what follows, each item is paired with its pIC50 for human 11βHSD1 (Homo sapiens, UniProt P28845).
pIC50: −log10 of the molar value.
ENDPOINT_NAME: pIC50

LINE_NOTATION: CN(CC1CC1)c1cc(C(=O)N[C@H]2C3CC4CC2C[C@](C(N)=O)(C4)C3)nn1C
ASSAYED_SYSTEM: human 11βHSD1 (Homo sapiens, UniProt P28845)
Sequence (P28845 whole entry): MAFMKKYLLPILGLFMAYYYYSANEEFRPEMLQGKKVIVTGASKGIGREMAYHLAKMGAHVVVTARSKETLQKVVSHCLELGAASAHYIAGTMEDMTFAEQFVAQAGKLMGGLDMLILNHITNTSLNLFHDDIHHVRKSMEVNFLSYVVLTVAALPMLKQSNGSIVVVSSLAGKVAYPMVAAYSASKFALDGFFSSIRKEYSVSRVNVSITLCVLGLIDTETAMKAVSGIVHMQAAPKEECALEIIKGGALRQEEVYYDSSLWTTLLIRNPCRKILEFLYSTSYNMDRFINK
pIC50: 7.41
--
LINE_NOTATION: CN(c1cc(C(=O)N[C@H]2C3CC4CC2C[C@](C(N)=O)(C4)C3)nn1C)C1CCC1
ASSAYED_SYSTEM: human 11βHSD1 (Homo sapiens, UniProt P28845)
pIC50: 7.60
